- methodSummary: Bioavailability and CSF/brain/plasma exposure after PO administration
- Format: in vivo, Sprague Dawley rats
- statedConditions: male, Sprague Dawley, rat, CSF; 10 mg/kg PO; read-out: CSF/plasma ratio
observable: Kp
Number, no unit, nothing else.

// C[C@@H](O)[C@@H](C(N)=O)N1C[C@@]2(CCCN2S(C)(=O)=O)C1=O : Kp value = 0.48

###

- tgt: NR2C (Homo sapiens, UniProt Q14957)
- Sequence (Q14957 20-1233, species assumed, other chains not shown): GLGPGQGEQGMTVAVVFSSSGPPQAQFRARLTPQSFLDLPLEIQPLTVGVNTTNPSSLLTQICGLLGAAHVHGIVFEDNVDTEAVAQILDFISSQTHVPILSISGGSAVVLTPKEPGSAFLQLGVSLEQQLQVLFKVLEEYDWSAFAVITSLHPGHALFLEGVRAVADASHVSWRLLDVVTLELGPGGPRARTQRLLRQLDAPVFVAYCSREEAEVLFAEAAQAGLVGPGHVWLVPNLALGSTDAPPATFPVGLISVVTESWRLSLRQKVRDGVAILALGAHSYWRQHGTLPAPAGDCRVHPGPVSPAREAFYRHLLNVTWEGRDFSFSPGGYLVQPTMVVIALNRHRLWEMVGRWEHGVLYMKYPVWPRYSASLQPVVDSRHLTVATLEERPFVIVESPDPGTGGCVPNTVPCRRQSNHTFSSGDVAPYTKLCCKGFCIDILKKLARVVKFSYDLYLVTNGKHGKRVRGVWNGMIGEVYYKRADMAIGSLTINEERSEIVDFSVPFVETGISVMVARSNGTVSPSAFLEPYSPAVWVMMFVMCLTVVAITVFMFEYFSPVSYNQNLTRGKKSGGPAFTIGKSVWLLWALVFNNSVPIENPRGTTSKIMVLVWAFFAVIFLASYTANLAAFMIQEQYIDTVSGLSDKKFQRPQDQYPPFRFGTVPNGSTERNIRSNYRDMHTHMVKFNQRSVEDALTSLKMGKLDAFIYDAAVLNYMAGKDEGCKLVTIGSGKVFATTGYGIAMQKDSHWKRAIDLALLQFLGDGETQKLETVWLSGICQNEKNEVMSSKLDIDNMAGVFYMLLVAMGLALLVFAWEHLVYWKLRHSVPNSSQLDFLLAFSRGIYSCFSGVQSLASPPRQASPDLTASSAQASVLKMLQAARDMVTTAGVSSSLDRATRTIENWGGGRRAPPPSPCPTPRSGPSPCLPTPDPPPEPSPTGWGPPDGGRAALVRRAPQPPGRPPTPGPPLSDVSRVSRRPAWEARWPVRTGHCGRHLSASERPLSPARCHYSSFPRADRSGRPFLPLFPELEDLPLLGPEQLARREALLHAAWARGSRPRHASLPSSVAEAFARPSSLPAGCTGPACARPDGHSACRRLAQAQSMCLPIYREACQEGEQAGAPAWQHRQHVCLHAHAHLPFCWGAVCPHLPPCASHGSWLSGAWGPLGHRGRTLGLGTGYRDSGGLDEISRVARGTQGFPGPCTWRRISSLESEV
- methodSummary: Potentiation of [3H]MK-801 binding, wild-type NMDAR2C
- Set-up: species or system rat
- statedConditions: relative to 1 mM glycine
A collection of compounds and their measured NMDAR2C BINDING PROFILE % 1 mM Glycine
State just the number; it will be interpreted in %.

C[C@@H](O)[C@@H](C(N)=O)N1C[C@@]2(CCCN2S(C)(=O)=O)C1=O = 0
CC(C)C(=O)N1CCC[C@]12CN([C@H](C(N)=O)[C@@H](C)O)C2=O = 64.24
CC(C)C(=O)N1CCC[C@@]12CN([C@H](C(N)=O)[C@@H](C)O)C2=O = 47.76

Turning now to a further record.
// C[C@@H](O)[C@@H](C(N)=O)N1C[C@@]2(CCCN2C(=O)OC(C)(C)C)C1=O : NMDAR2C BINDING PROFILE % 1 mM Glycine value = 59.73
